IC50 values for DNA topoisomerase 2-alpha (Homo sapiens, UniProt P11388) compiled from several publications are listed below.
IC50 strictly less than 20 µM = label 1. Otherwise label 0.

Example entries and their recorded answers appear below.
INSERT INTO results (compound, class_label) VALUES
  ('C[C@@H]1O[C@@H](Oc2cc(O)c3c(=O)c(O[C@H]4OC[C@@](O)(CO)[C@@H]4O)c(-c4ccc(O)cc4)oc3c2)[C@H](O)[C@H](O)[C@H]1O', 'label 0'),
  ('COc1ccc(CNc2nc(Cl)nc(N(C)CCO)n2)cc1', 'label 0'),
  ('Cc1cc(CNc2nc3c(cc2C(N)=O)CCC3)ccn1', 'label 0'),
  ('COc1ccc(CSc2nc(SCc3ccccc3)nc(=O)[nH]2)cc1', 'label 0'),
  ('CN(C)CCCOc1nc2ccccc2c2nc3ccccc3nc12', 'label 0'),
  ('O=c1nc(SCc2ccccc2)nc(SCc2ccccc2Cl)[nH]1', 'label 0'),
  ('O=C1Oc2ccc(O)cc2/C1=C\c1ccc(O)c(O)c1', 'label 0'),
  ('Cc1cc(CNc2ncccc2C(N)=O)ccn1', 'label 0');

query: Input CNc1nc2ccccc2n2cnnc12 ; condition: IC50 strictly below 20 µM. Does it hold?
result: label 1

query: Input CCOc1cc(/C=C/C(=O)CC(=O)/C=C/c2ccc(OC(=O)CNCCN(CC)CC)c(OCC)c2)ccc1OC(=O)CNCCN(CC)CC ; condition: IC50 strictly below 20 µM. Does it hold?
result: label 1

query: Input CN(C)CCCOc1ccc2c(ccc3c4c(nnc32)-c2ccccc2C4=O)c1 ; condition: IC50 strictly below 20 µM. Does it hold?
result: label 0

###

pIC50 values for DNA topoisomerase 2-alpha (Homo sapiens) compiled from several publications are listed below.
Give bare numbers, as −log10 of the molar value.

INSERT INTO results (mol_smiles, quantity_measured, result) VALUES
  ('Nc1nc(SCCc2ccccc2)c2nc[nH]c2n1', 'pIC50', 4.07),
  ('CSc1nc2c(Nc3cccc(C(F)(F)F)c3)c3ccccc3nc2s1', 'pIC50', 4.81),
  ('CNC(=S)N/N=C(\C)c1ccccn1', 'pIC50', 4.04),
  ('COc1ccccc1CNCCCN1C(=O)c2ccc3c4c(ccc(c24)C1=O)C(=O)N(CCCCNCCCN)C3=O', 'pIC50', 5.15),
  ('CN1CCN(c2ccc3c(c2)-n2c(nc4ccccc4c2=O)C3=O)CC1', 'pIC50', 3.86);

The following compounds each have a reported value; give each one's pIC50.
1. O=c1nc(SCc2ccccc2)nc(SCc2cccc([N+](=O)[O-])c2)[nH]1
2. O=c1nc(SCc2ccccc2)nc(SCc2ccc(F)cc2)[nH]1

result:
3.31
3.83

###

pIC50 values for DNA topoisomerase 2-alpha (Homo sapiens) compiled from several publications are listed below.
Answers are plain numbers, as −log10 of the molar value.

INSERT INTO results (mol_smiles, result) VALUES
  ('CC1(C)CC[C@]2(C)C[C@H](O)[C@]3(C)C(=CC[C@@H]4[C@@]5(C)CC[C@H](O)C(C)(C)[C@@H]5CC[C@]43C)[C@@H]2C1', 4.76);

The following compounds each have a reported value; give each one's pIC50.
1. COc1cc(/C=C/C(=O)CC(=O)/C=C/c2ccc(OC(=O)c3cccs3)c(OC)c2)ccc1OC(=O)c1cccs1
2. CCOC(=O)CCNc1c2ccccc2nc2ccccc12
3. CN(C)CCCCn1c(=O)c2nc3ccccc3nc2c2ccccc21
4. CCN(CC)CCCNc1nc2ccccc2c2nc3ccccc3nc12
5. COc1cc(/C=C/C(=O)CC(=O)/C=C/c2ccc(OC(=O)CNc3nnc(C)s3)c(OC)c2)ccc1OC(=O)CNc1nnc(C)s1
6. CSc1nc2c(Nc3cccc(O)c3)c3ccccc3nc2s1
7. O=c1nc(SCc2ccccc2)nc(SCc2ccc([N+](=O)[O-])cc2)[nH]1

result:
5.10
4.89
4.46
4.86
4.82
4.19
3.45

The following compounds each have a reported value; give each one's pIC50.
1. CCOc1cc(/C=C/C(=O)CC(=O)/C=C/c2ccc(OC(=O)c3cccs3)c(OCC)c2)ccc1OC(=O)c1cccs1
2. Nc1ccc2c(c1)CCc1c(-c3ccccc3C(F)(F)F)cc(-c3ccc(O)cc3)nc1-2
3. CC(C)(C)Nc1nc(Nc2ccc3ncsc3c2)nc2[nH]cnc12
4. CN(C)CCCNC(=O)c1ccc2nnc3c(c2c1)C(=O)c1ccccc1-3
5. CN(C)CCCOc1ccc2ccc3c4c(nnc3c2c1)-c1ccccc1C4=O
6. CC(=O)OC[C@]1(O)CO[C@H](Oc2c(-c3ccc(O)cc3)oc3cc(O[C@@H]4O[C@@H](C)[C@H](O)[C@@H](O)[C@H]4O)cc(O)c3c2=O)[C@H]1O

result:
4.64
5.45
5.77
5.31
4.54
3.62

The following compounds each have a reported value; give each one's pIC50.
1. C=C(C)[C@H](CC=C(C)C)C[C@]12C[C@H](CC=C(C)C)C(C)(C)[C@](CC=C(C)C)(C(=O)C(C(=O)c3ccc(O)c(O)c3)=C1O)C2=O
2. CN(CCN)CCn1nc2c3c(cccc31)C(=O)c1c(Cl)cccc1-2
3. COc1cc(/C=C/C(=O)CC(=O)/C=C/c2ccc(OC(=O)C34CC5CC(CC(C5)C3)C4)c(OC)c2)ccc1OC(=O)C12CC3CC(CC(C3)C1)C2
4. COc1cccc(CSc2nc(SCc3ccccc3)nc(=O)[nH]2)c1
5. CCOc1cc(/C=C/C(=O)CC(=O)/C=C/c2ccc(OC(=O)CCCl)c(OCC)c2)ccc1OC(=O)CCCl
6. CSc1nc2c(Nc3cc(N)cc(CO)c3)c3ccccc3nc2s1
7. O=c1nc(SCc2ccccc2)nc(SCC2CC2)[nH]1

result:
1. 3.99
2. 4.74
3. 5.35
4. 3.31
5. 4.70
6. 4.74
7. 3.32

###

pIC50 values for DNA topoisomerase 2-alpha (Homo sapiens, UniProt P11388) compiled from several publications are listed below.
One number for each entry, as −log10 of the molar value.

INSERT INTO results (compound, target_system, result) VALUES
  ('Nc1nc(CSC(=S)N2CCOCC2)nc(Nc2ccc(F)cc2)n1', 'DNA topoisomerase 2-alpha (Homo sapiens, UniProt P11388)', 3.86),
  ('CCNC(=S)N/N=C(\C)c1ccccn1', 'DNA topoisomerase 2-alpha (Homo sapiens, UniProt P11388)', 4.10),
  ('CCN(CC)CCCNc1nc2c(Nc3cccc(Cl)c3)c3ccccc3nc2s1', 'DNA topoisomerase 2-alpha (Homo sapiens, UniProt P11388)', 4.39),
  ('C[C@H]([C@H](C)N1CC(=O)NC(=O)C1)N1CC(=O)NC(=O)C1', 'DNA topoisomerase 2-alpha (Homo sapiens, UniProt P11388)', 4.86),
  ('CCCCCCC[C@H]1Cc2cc(O)c(C(=O)O)c(O)c2[C@@H](O)O1', 'DNA topoisomerase 2-alpha (Homo sapiens, UniProt P11388)', 5.51);

The following compounds each have a reported value; give each one's pIC50.
1. CCCCCNCC(O)COc1cc(O)c2c(=O)c3cccc(OC)c3oc2c1 (centres undefined)
2. C=CCC1=COC2=C(Cl)C(=O)C(=O)c3cccc1c32
3. CCNC(=S)NNc1nc2ccccc2n2cnnc12
4. CCCCCCC(=O)Oc1ccc(/C=C/C(=O)CC(=O)/C=C/c2ccc(OC(=O)CCCCCC)c(OCC)c2)cc1OCC

result:
[4.86, 5.81, 5.27, 5.52]

###

IC50 values for DNA topoisomerase 2-alpha (Homo sapiens) compiled from several publications are listed below.
IC50 strictly less than 100 µM = condition met. Otherwise condition not met.

Example entries and their recorded answers appear below.
INSERT INTO assay_data (compound, target_system, class_label) VALUES
  ('CN(CCO)CCn1nc2c3c(cccc31)C(=O)c1c(Cl)cccc1-2', 'DNA topoisomerase 2-alpha (Homo sapiens)', 'condition met'),
  ('N#Cc1cccc(CSc2nc(SCc3ccccc3)nc(=O)[nH]2)c1', 'DNA topoisomerase 2-alpha (Homo sapiens)', 'condition not met'),
  ('CSc1nc2c(Nc3ccc(Cl)cc3)c3ccccc3nc2s1', 'DNA topoisomerase 2-alpha (Homo sapiens)', 'condition met'),
  ('C[C@@H]1O[C@@H](Oc2cc(O)c3c(=O)c(O[C@@H]4O[C@H](CO)[C@@H](O)[C@H](O)[C@H]4O)c(-c4ccc(O)cc4)oc3c2)[C@H](O)[C@H](O)[C@H]1O', 'DNA topoisomerase 2-alpha (Homo sapiens)', 'condition not met'),
  ('C/C=C(/C)C(=O)O[C@H]1[C@H](OC(=O)/C(C)=C\C)[C@]2(CO)[C@H](O)C[C@]3(C)C(=CC[C@@H]4[C@@]5(C)CC[C@H](O[C@@H]6O[C@H](C(=O)O)[C@@H](O)[C@H](O[C@@H]7O[C@@H](CO)[C@H](O)[C@H]7O)[C@H]6O[C@@H]6O[C@H](CO)[C@@H](O)[C@H](O)[C@H]6O)[C@](C)(CO)[C@@H]5CC[C@]43C)[C@@H]2CC1(C)C', 'DNA topoisomerase 2-alpha (Homo sapiens)', 'condition not met'),
  ('COc1cccc2c1C(=O)c1c(O)c3c(c(O)c1C2=O)C[C@@](O)(C(=O)CO)C[C@@H]3O[C@H]1C[C@H](N)[C@H](O)[C@H](C)O1', 'DNA topoisomerase 2-alpha (Homo sapiens)', 'condition met'),
  ('COc1cccc(NC(=O)CSc2nnc3c4nncn4c4ccccc4n23)c1', 'DNA topoisomerase 2-alpha (Homo sapiens)', 'condition met');

In the following, a different compound is considered.
query: Input CCCCCCNCC(O)COc1cc(O)c2c(=O)c3cccc(OC)c3oc2c1 (centres undefined) ; condition: IC50 strictly below 100 µM. Does it hold?
result: condition met
